# ASSAYED TARGET: P450 1B1 (Homo sapiens, UniProt Q16678, L432V)
# Sequence (Q16678 whole entry L432V): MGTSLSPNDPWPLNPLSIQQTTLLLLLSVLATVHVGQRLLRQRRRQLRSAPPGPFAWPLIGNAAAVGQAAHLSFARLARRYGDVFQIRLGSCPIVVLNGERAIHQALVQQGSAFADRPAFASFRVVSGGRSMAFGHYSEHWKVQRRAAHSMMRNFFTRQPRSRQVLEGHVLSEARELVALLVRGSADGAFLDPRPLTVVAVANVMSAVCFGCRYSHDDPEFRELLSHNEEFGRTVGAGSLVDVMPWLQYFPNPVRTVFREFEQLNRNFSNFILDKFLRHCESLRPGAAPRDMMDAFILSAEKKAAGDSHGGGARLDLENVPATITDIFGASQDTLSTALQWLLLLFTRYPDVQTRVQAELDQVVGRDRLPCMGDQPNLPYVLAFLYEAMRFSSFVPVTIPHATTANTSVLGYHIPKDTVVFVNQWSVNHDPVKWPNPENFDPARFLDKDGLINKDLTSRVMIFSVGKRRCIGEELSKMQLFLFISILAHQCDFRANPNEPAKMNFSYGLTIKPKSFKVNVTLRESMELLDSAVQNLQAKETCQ
# REPORTED CONDITIONS: 10 nM P450, 2.5 µM procarcinogen, means ± range of duplicate experiments
MEASUREMENT LABEL: activation of procarcinogens umu gene expression (units/min/nmol P450)
Give the number; units/min/nmol P450 is assumed, so skip it.

>  <COMPOUND>
OC1C=Cc2c(ccc3c2ccc2ccccc23)C1O (stereo not shown) [chrysene-1,2-diol, 1,2-dihydroxy-1,2-dihydrochrysene]

>  <ASSAYED TARGET>
P450 1B1 (Homo sapiens, UniProt Q16678, L432V)

>  <UNIT SYMBOL>
units/min/nmol P450

>  <RECORDED MEASUREMENT>
220

$$$$
>  <COMPOUND>
Cc1cc2ccccc2c2ccc3c(c12)C=CC(O)C3O (stereo not shown)

>  <ASSAYED TARGET>
P450 1B1 (Homo sapiens, UniProt Q16678, L432V)

>  <UNIT SYMBOL>
units/min/nmol P450

>  <RECORDED MEASUREMENT>
2600

$$$$
>  <COMPOUND>
OC1C=Cc2c(cc3ccc4cccc5ccc2c3c45)C1O (racemic) [( ± )B[a]P-7,8-diol, 7,8-dihydroxy-7,8-dihydrobenzo[a]pyrene]

>  <ASSAYED TARGET>
P450 1B1 (Homo sapiens, UniProt Q16678, L432V)

>  <UNIT SYMBOL>
units/min/nmol P450

>  <RECORDED MEASUREMENT>
2600

$$$$
>  <COMPOUND>
OC1C=C2c3ccccc3-c3cccc(c32)C1O (stereo not shown) [FA-2,3-diol, 2,3-dihydroxy-2,3-dihydrofluoranthene]

>  <ASSAYED TARGET>
P450 1B1 (Homo sapiens, UniProt Q16678, L432V)

>  <UNIT SYMBOL>
units/min/nmol P450

>  <RECORDED MEASUREMENT>
30

$$$$
>  <COMPOUND>
Nc1ccc2cc3ccccc3cc2c1

>  <ASSAYED TARGET>
P450 1B1 (Homo sapiens, UniProt Q16678, L432V)

>  <UNIT SYMBOL>
units/min/nmol P450

>  <RECORDED MEASUREMENT>
1900

$$$$

For the compound OC1C=Cc2c(ccc3c4ccccc4c4ccccc4c23)C1O (stereo not shown) [B[g]C-11,12-diol] , report activation of procarcinogens umu gene expression.
207

For the compound c1ccc2c(c1)ccc1ccc3ccccc3c12 [B[c]Phe, benzo[c]phenanthrene] , report activation of procarcinogens umu gene expression.
25

For the compound Cn1c(N)nc2c3cccnc3ccc21 [IQ, 2-amino-3-methylimiidazo[4,5-f]quinoline] , report activation of procarcinogens umu gene expression.
220

For the compound OC1C=Cc2c(ccc3ccc4ccccc4c23)C1O (stereo not shown) [B[c]Phe-3,4-diol] , report activation of procarcinogens umu gene expression.
140

###

# ASSAYED TARGET: P450 2A6 (Homo sapiens, UniProt P11509)
# Sequence (P11509 whole entry): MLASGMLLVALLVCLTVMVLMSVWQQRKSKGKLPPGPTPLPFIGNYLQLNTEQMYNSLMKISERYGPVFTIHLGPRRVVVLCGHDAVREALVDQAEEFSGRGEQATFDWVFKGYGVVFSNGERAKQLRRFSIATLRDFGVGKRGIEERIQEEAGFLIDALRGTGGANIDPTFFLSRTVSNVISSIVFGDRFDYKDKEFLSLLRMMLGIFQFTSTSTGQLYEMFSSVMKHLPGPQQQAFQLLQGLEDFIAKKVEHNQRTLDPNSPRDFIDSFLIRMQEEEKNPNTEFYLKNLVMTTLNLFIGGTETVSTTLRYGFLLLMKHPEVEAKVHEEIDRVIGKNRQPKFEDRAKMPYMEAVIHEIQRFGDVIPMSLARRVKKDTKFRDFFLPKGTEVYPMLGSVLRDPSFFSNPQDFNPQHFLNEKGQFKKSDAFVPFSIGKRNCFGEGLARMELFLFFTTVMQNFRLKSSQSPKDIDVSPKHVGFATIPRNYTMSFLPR
# REPORTED CONDITIONS: pH 7.4
MEASUREMENT LABEL: activation of procarcinogens umu gene expression

Illustrative cases are given below, each with its answer.
>  <COMPOUND>
Cc1c2ccccc2c(C)c2c1ccc1ccccc12 [7,12-DMBA, 7,12-dimethylbenz[a]anthracene]

>  <RECORDED MEASUREMENT>
<10 units/min/nmol P450

$$$$
>  <COMPOUND>
Cc1c(N)nc(C)c2c1[nH]c1ccccc12

>  <RECORDED MEASUREMENT>
61 ± 11 units/min/nmol P450

$$$$
>  <COMPOUND>
OC1C=Cc2c(cc3ccc4cccc5ccc2c3c45)C1O (racemic) [( ± )B[a]P-7,8-diol, 7,8-dihydroxy-7,8-dihydrobenzo[a]pyrene]

>  <RECORDED MEASUREMENT>
45 ± 11 units/min/nmol P450

$$$$
>  <COMPOUND>
c1ccc2c(c1)-c1cccc3cccc-2c13

>  <RECORDED MEASUREMENT>
<10 units/min/nmol P450

$$$$

For the compound Cc1cnc2ccc3c(nc(N)n3C)c2n1 , report activation of procarcinogens umu gene expression.
45 ± 15 units/min/nmol P450
